experimental_target: TDP-43 (Homo sapiens, UniProt Q13148 1-414)
Sequence (Q13148 whole entry): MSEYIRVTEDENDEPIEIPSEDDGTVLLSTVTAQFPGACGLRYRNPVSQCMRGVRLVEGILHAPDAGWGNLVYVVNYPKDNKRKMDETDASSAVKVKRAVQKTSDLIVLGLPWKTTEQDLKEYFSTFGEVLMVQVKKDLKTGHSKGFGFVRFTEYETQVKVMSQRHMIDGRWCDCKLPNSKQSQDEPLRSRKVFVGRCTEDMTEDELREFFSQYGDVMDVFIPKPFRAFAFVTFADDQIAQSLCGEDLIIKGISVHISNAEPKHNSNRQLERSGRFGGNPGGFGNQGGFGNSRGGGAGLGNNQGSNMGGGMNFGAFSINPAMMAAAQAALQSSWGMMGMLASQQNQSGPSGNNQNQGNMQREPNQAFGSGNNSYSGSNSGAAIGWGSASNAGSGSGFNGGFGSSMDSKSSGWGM
test_method_notes: RNA Bind-n-Seq with designed 260-mer pool; 25 mM Tris-HCl, 150 mM KCl, 3 mM MgCl2, BSA (printed 500 mg/mL), 20 units/mL SUPERase IN; pH not stated; 500 nM RNA pool, 1 h, 4 C; TDP-43 5, 50, 500 nM; high values mean tight binding
test_parameters: protein: recombinant; tags: SBP (GST cleaved off with PreScission; pGEX-GST-SBP)
Whole data set: some 9,900 sequences, median “r (bound/input frequency ratio)” near 0.7, cut for the highest 2% near 6.5. The sample holds the highest values, similar sequences and a random draw of the others, so the mix is not that of the screen.
Entries and their binding signal

- binder: "ENSMUSG00000031028.479|Tub|35:40;147:153;184:190 (ssRNA) RNA: GGGAGUUCUACAGUCCGACGAUCGCUUCGAUAUCCGCAUGCUACUCCCAUGGUUCUGAGCAGGCGACUGUCAAGGAACACACAUGUCAGUUCACUGGAGGAGGAGCUGAGAUGUGCACCCUUUUAAAUGAACAUGGGGUGGUGAUGGUGCCUUAACAAUCUUGACACUAAGGUGAAGCAAGCAAGUAAGCACACACCCUCUGGGAAGACAGGAGUCGGAAGCCAAGCACACACGCAACAGUCUGGAAGAGAGCUUUUGGUAAUCAUACCGUCUUCAGUGACAAGGCAACAAUGCUGUAAAGUGCUCUUGCGGUCGCACUAGUGUGGAAUUCUCGGGUGUCAAGG"
  binding signal: "0.829 R (bound/input frequency ratio)"
- binder: "ENSMUSG00000034801.232|Sos2|152:160 (ssRNA) RNA: GGGAGUUCUACAGUCCGACGAUCGCUUCGAUAUCCGCAUGCUAUAACUGUCUUUAAUCUCGUGUUAACUGAAAUUUUUGAAAAGUUUUUCCAGAUUAGUAAUAUUUAAACAGAAAAUACUUUAAAAAGCUUUAUUAAAUUUUUUAAUCAGGAUAAAGCUUUGCCAUUUGGAUACUAUCAUUCAAAGUGAUCAAGCAUACAUACUUAUGCUGAUAGUGCAGUAGCAGCCAUUGUAAAGUAGCCAAAAGCCACGUUGUUUAUCUACUGGUCUGUGGCCUUUUACUGUGCUUUGUAUCAGAGUUCUCUCUUGCGGUCGCACUAGUGUGGAAUUCUCGGGUGUCAAGG"
  binding signal: "0.0144 R (bound/input frequency ratio)"
